target: HIV-1 RT enzyme (wild type) (Human immunodeficiency virus type 1 group M subtype B, UniProt P04585); construct: The reverse transcriptase (RT) enzyme assay has been adapted to a 96-well microtiter plate format; test: Reverse transcriptase (RT) enzymatic assay (IC50), PicoGreen fluorescence, wild type; assay type: biochemical; conditions: RT enzymatic assay, wild type; read-out: IC50 WT
Reported IC50 values for a set of compounds

Some compounds with recorded IC50:
COMPOUND SMILES	RESULT VALUE
O=C(CSc1nc2ccccc2n1-c1cccc2ccccc12)Nc1ccccc1[N+](=O)[O-]	> 100 nM
COc1ccccc1NC(=O)CSc1nccn1-c1cccc2ccccc12	> 100 nM
O=C(CSc1nnnn1-c1cccc(Cl)c1Cl)Nc1ccccc1[N+](=O)[O-]	< 50 nM
Cc1ccc(NC(=O)CSc2nnnn2-c2cccc3ccccc23)c(C)c1	> 100 nM
O=[N+]([O-])c1ccccc1NCCSc1nnnn1-c1cccc2ccccc12	> 100 nM

What does the data say about its IC50? Entry: O=C(CSc1nnnn1-c1ccc(I)cc1Cl)Nc1ccccc1Cl
< 50 nM

Check O=C(CSc1nnnn1-c1cccc2ccccc12)Nc1ccc([N+](=O)[O-])cc1 too.
> 100 nM

Check O=C(CSc1nnnn1-c1cccc2ccccc12)Nc1ccccc1F too.
> 100 nM

Check O=C(CSc1nnnn1-c1ccc(Cl)c(C(F)(F)F)c1)Nc1ccccc1[N+](=O)[O-] too.
> 100 nM

----------
biological target: HIV-1 RT resistant mutant K103N/Y181C (Human immunodeficiency virus type 1 group M subtype B, UniProt P04585, K690N/Y768C); construct: The reverse transcriptase (RT) enzyme assay has been adapted to a 96-well microtiter plate format; assay: Reverse transcriptase (RT) enzymatic assay (IC50), PicoGreen fluorescence, resistant mutant
pIC50: −log10 of the molar value.
Reported pIC50 values for a set of compounds

What does the data say about its pIC50? Entry: O=C(CSc1nnnn1-c1cccc2ccccc12)Nc1ccccc1
< 7.00

Check O=C(CSc1nnnn1-c1ccc(Cl)cc1Cl)Nc1ccccc1[N+](=O)[O-] too.
< 7.00

Check Cc1ccc(-n2c(C)nnc2SCC(=O)Nc2ccc(-c3ccccc3)cc2Cl)c(Cl)c1 too.
< 7.00

----------
biological target: HIV-1 RT enzyme (wild type) (Human immunodeficiency virus type 1 group M subtype B); construct: The reverse transcriptase (RT) enzyme assay has been adapted to a 96-well microtiter plate format; test: Reverse transcriptase (RT) enzymatic assay (IC50), PicoGreen fluorescence, wild type; format: biochemical; conditions: RT enzymatic assay, wild type; read-out: IC50 WT
pIC50: −log10 of the molar value.
Reported pIC50 values for a set of compounds

COMPOUND SMILES	SYSTEM NAME	RESULT VALUE
Cc1ccc(-n2c(CCO)nnc2SCC(=O)Nc2ccc(-c3ccccc3)cc2Cl)c(Cl)c1	HIV-1 RT enzyme (wild type) (Human immunodeficiency virus type 1 group M subtype B)	> 7.30
O=C(C=Cc1nnnn1-c1cccc2ccccc12)Nc1ccccc1[N+](=O)[O-]	HIV-1 RT enzyme (wild type) (Human immunodeficiency virus type 1 group M subtype B)	< 7.00
O=C(COCc1nnnn1-c1cccc2ccccc12)Nc1ccccc1[N+](=O)[O-]	HIV-1 RT enzyme (wild type) (Human immunodeficiency virus type 1 group M subtype B)	< 7.00

What does the data say about its pIC50? Entry: O=C(CSc1nnnn1-c1cccc2ccccc12)Nc1ccccc1Cc1ccccc1
< 7.00

Check Cc1ccc(-n2nnnc2SCC(=O)Nc2ccccc2Cl)c(Br)c1 too.
> 7.30
